Cited source for all entries: paper PMC12207370

# Percentage Average per entry
Biological target: biotinylated CD59 (Homo sapiens)
Construct: Recombinant soluble human CD59 with an additional C-terminal cysteine residue
Sequence (P13987 26-102 limits assumed): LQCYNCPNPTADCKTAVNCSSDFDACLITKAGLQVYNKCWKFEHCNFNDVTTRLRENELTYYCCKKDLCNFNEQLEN
Test: mRNA-display cyclic peptide screen against CD59-biotin, NGS abundance after 6th selection round
Settings: percentage of the pool averaged across the two sequencing samples, sheet R6
Respond with the figure and its unit, in that order.

Answered cases to consult:
Monomer sequence	Val
ISWGNGSLAFY	0.132%
CFSARAILDGGW	0.249%
FVTGNRDHTRG	7.203%
SRGGKDWSRG	0.243%
FIRGNSTSVLFLRQRQRQLGRGAE	0.066%
SSWAQLPCRR	0.068%
RYGGRTFIYAWS	0.025%
FVTGNRDHARG	0.032%

Kindly consider the entry below.
Would you kindly share the measured Percentage Average for `YLSGSSNFTRG` ?
0.043%

---

Target: biotinylated CD59 (Homo sapiens, UniProt P13987)
Construct: Recombinant soluble human CD59 with an additional C-terminal cysteine residue
Sequence (P13987 26-102 limits assumed): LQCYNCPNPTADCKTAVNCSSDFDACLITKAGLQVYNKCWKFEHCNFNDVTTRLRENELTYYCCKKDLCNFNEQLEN
Test: mRNA-display cyclic peptide screen against CD59-biotin, NGS abundance after 6th selection round
Settings: average of Seq I and Seq II, sheet R6
Measured metric: Percentage of the pool, averaged across the two sequencing samples (%)
Provide the reading as a plain figure in %.

Worked cases, Percentage of the pool, averaged across the two sequencing samples given:
Monomer sequence	Unit info	Val
YVYGSRDRC	%	0.014
FVRGNRYSVLG	%	0.013
FVTGNRDHTRV	%	0.010
FVTSNRDHTRG	%	0.010
FARGDLYSVLG	%	0.014

# input sequence: `CKIDVYGRTWS` ; wanted: its Percentage of the pool, averaged across the two sequencing samples
0.015

Give its Percentage of the pool, averaged across the two sequencing samples value. Item: `DPYCPFFPEFR`
0.012

Given the sequence `RCWASGSRDWR` , what is its reported Percentage of the pool, averaged across the two sequencing samples?
0.018

Please give the measured Percentage of the pool, averaged across the two sequencing samples for this sequence: `SCSEWRRGTRS`
0.010

Please look up its Percentage of the pool, averaged across the two sequencing samples: `CFSHRNPTDSI`
0.011

Please give the measured Percentage of the pool, averaged across the two sequencing samples for this sequence: `FVLGNRHTIVG`
0.013

Bench note: what Percentage of the pool, averaged across the two sequencing samples did `CFIRRSIESGTA` show?
0.018

Record request: Percentage of the pool, averaged across the two sequencing samples value, item `STRRDRLGLTC`
0.017

Would you kindly share the measured Percentage of the pool, averaged across the two sequencing samples for `SAWGNRLIQYY` ?
0.015

---

Here, each record is paired with measured Percentage Seq I data.
Biological target: biotinylated CD59 (Homo sapiens)
Construct: Recombinant soluble human CD59 with an additional C-terminal cysteine residue
Sequence (P13987 26-102 limits assumed): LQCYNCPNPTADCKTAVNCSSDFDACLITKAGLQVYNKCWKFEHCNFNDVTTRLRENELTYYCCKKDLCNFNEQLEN
Test: mRNA-display cyclic peptide screen against CD59-biotin, NGS abundance after 6th selection round
Conditions: counts normalised by total counts of sample Seq I; percentage of the pool, sheet R6
The reply should contain only the number, in %.

Monomer sequence	Unit info	Percentage Seq I
TYGSRFCPQYCAAAAAAARTGGG	%	0.030
CFRNRVLEITST	%	0.042

What Percentage Seq I value was documented for this sequence, `LKPNGRCLPKV` ?
0.272

For `AVAGSRHWAWG` , what is its reported Percentage Seq I?
0.039

Look up Percentage Seq I: `LYSHPRSLCSFS`
0.082

State the recorded Percentage Seq I for this entry: `CYGGRTFIYVWS`
0.038

Find the recorded Percentage Seq I belonging to `HAFGSRDITYY` and report it.
0.246

Quick check: Percentage Seq I of `LGGRGCFRPCSAAAAAAARTGGG` ?
0.050

Quick check: Percentage Seq I of `CFAGRLTIDAV` ?
2.645

I have this sequence here, `CLRLHREPGSL` , and I need its recorded Percentage Seq I.
0.103

Look up Percentage Seq I for this sequence: `WRDRFDQCVR`
0.039

Give its Percentage Seq I value. Item: `SSALERIGKCP`
0.227

Quick one: Percentage Seq I of `LWGTHSYIYYRP` ?
0.482

Requested read-out: Percentage Seq I. Entry: `FVTGNRDHARG`
0.029

Entry `TISGGRDYTRG` : reported Percentage Seq I = ?
0.948

---

Biological target: biotinylated CD59 (Homo sapiens)
Construct: Recombinant soluble human CD59 with an additional C-terminal cysteine residue
Sequence (P13987 26-102 limits assumed): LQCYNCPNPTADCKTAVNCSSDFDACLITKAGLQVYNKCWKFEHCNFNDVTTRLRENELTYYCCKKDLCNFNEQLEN
Assay: mRNA-display cyclic peptide screen against CD59-biotin, NGS abundance after 6th selection round
Conditions: raw NGS counts of peptide sequence, sequencing sample Seq I, sheet R6 (6th selection round)
Returns one of Y or N; Y when Counts Seq I is >= 300.

Below, 6 sequences whose answers are already recorded.
Monomer sequence	Group label
HVRGDAWTVLG	Y
WSTRTFTCRTLL	Y
CFTQRIASGSK	N
CYGGRTFIHAWS	N
LWGTHSYIYYRP	Y
CYTAGSASWSRG	Y

Evaluate `ISRGDARYTWG` : Counts Seq I at minimum 300?
N

---

Biological target: biotinylated CD59 (Homo sapiens)
Construct: Recombinant soluble human CD59 with an additional C-terminal cysteine residue
Sequence (P13987 26-102 limits assumed): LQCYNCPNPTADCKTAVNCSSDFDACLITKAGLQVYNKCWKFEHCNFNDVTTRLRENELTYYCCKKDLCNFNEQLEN
Experiment: mRNA-display cyclic peptide screen against CD59-biotin, NGS abundance after 6th selection round
Details: raw NGS counts of peptide sequence, sequencing sample Seq II, sheet R6 (6th selection round)
Class class 1: Counts Seq II at least 40. Class class 0: Counts Seq II below 40.

hey, is Counts Seq II for this one >= 40? `CFAGRLTTDAV`
class 0

Check the entry `SIRGGRDYTRG` : does Counts Seq II equal or exceed 40?
class 1

Quick check, Counts Seq II >= 40? `CYGGRTFIYAWP`
class 0

Test whether the sequence `FIRGNSTSVLFLRQRQRQLGRGAE` records Counts Seq II of 40 or higher.
class 0

---

Target: biotinylated CD59 (Homo sapiens)
Construct: Recombinant soluble human CD59 with an additional C-terminal cysteine residue
Sequence (P13987 26-102 limits assumed): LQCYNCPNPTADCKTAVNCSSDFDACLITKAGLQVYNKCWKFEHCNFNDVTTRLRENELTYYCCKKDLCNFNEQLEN
Experiment: mRNA-display cyclic peptide screen against CD59-biotin, NGS abundance after 6th selection round
Details: counts normalised by total counts of sample Seq II; percentage of the pool, sheet R6
Measured metric: Percentage Seq II (%)
State the answer as a number, implicitly in %.

Previously resolved entries follow.
Monomer sequence	Target or system	Unit info	Percentage Seq II
SRNGIQFTCS	biotinylated CD59 (Homo sapiens)	%	0.037
CFARRLSASLGT	biotinylated CD59 (Homo sapiens)	%	0.021
SSALERIGKCP	biotinylated CD59 (Homo sapiens)	%	0.211
ASWLPSPCKFN	biotinylated CD59 (Homo sapiens)	%	0.037
SKNGLTFLCN	biotinylated CD59 (Homo sapiens)	%	0.211
IATGSKLYAKG	biotinylated CD59 (Homo sapiens)	%	0.046

Consider the sequence shown here: `GYLNECHTLYTR` What is its recorded Percentage Seq II?
0.645

Reported Percentage Seq II for `VWGNRWTRIYW` : what is it?
0.035

Please give the measured Percentage Seq II for this sequence: `IIRGNRLTKYE`
0.026

If you can, please state the reported Percentage Seq II value of `CYGSRTFIYAWS` .
0.019

For `SVTGNRDHTRG` , what is its reported Percentage Seq II?
0.026

Consider the sequence `FVRGDQYSVLG` and give its measured Percentage Seq II.
0.081

Recorded Percentage Seq II for `CPQLILRGWQ` , please?
0.044

May I ask what Percentage Seq II has been recorded for `QWNRWYGIDER` ?
0.023

Could you tell me which Percentage Seq II is on file for `YARGNNASQFF` ?
0.088

Reported Percentage Seq II for `SWTWGDRSSVRG` : what is it?
0.023

Fill in: Percentage Seq II of `CFAARLSNGDS` is ___
0.362

So what's the measured Percentage Seq II for this one? `SAWGNRQIQYC`
0.028

Consider the sequence `SRGGKDWSRG` and give its measured Percentage Seq II.
0.251
